Recorded phytotoxicity rating ABUTH values for a group of compounds are listed next.
- Tested on: velvetleaf (Abutilon theophrasti, ABUTH)
- ASSAY_OVERVIEW: Post-emerge test, greenhouse herbicide activity screening
- Assay type: in vivo
- CONDITION_DETAILS: post-emerge, 63 g ai/ha, 14 days after application, rating scale 0-100

{"columns": ["COMPOUND", "phytotoxicity rating ABUTH"],
 "data": [
  ["Cn1c(C(F)(F)F)cc(=O)n(-c2ccc(Cl)cc2NC(=O)OCc2ccccc2F)c1=O [4-49]", 100],
  ["COc1c(Cl)cc(F)c(-n2c(=O)cc(C(F)(F)F)n(C)c2=O)c1NC(=O)c1cccc(Cl)c1 [2-54]", 100],
  ["Cn1c(C(F)(F)F)cc(=O)n(-c2c(F)cc(Cl)c(OCC#N)c2NC(=O)CCc2ccccc2)c1=O [2-87]", 100],
  ["COc1c(Cl)cc(F)c(-n2c(=O)cc(C(F)(F)F)n(C)c2=O)c1NC(=O)OCc1cc(F)ccc1F [4-39]", 100],
  ["COc1c(Cl)cc(F)c(-n2c(=O)cc(C(F)(F)F)n(C)c2=O)c1NC(=O)C=Cc1ccccc1Cl [2-82]", 100],
  ["COc1c(Cl)cc(F)c(-n2c(=O)cc(C(F)(F)F)n(C)c2=O)c1NC(=O)c1ccc(Cl)c(Cl)c1 [2-59]", 100],
  ["COc1c(Cl)cc(F)c(-n2c(=O)cc(C(F)(F)F)n(C)c2=O)c1N(C(=O)c1ccc([N+](=O)[O-])cc1)C(=O)c1ccc([N+](=O)[O-])cc1 [2-69]", 100],
  ["COc1c(Cl)cc(F)c(-n2c(=O)cc(C(F)(F)F)n(C)c2=O)c1NC(=O)C(C)=Cc1ccccc1 [2-81]", 100],
  ["COc1c(Cl)cc(F)c(-n2c(=O)cc(C(F)(F)F)n(C)c2=O)c1NC(=O)OCc1ccc2ccccc2c1 [4-28]", 100],
  ["COc1c(Cl)cc(F)c(-n2c(=O)cc(C(F)(F)F)n(C)c2=O)c1NC(=O)OCc1c(F)cccc1F [4-29]", 100],
  ["COc1c(Cl)cc(F)c(-n2c(=O)cc(C(F)(F)F)n(C)c2=O)c1NC(=O)c1cccc(F)c1F [2-41]", 100],
  ["COc1c(Cl)cc(F)c(-n2c(=O)cc(C(F)(F)F)n(C)c2=O)c1NC(=O)CC#N [2-14]", 100],
  ["COc1c(Cl)cc(F)c(-n2c(=O)cc(C(F)(F)F)n(N)c2=O)c1NC(=O)c1ccc(F)cc1F [2-44]", 100],
  ["COc1c(Cl)cc(F)c(-n2c(=O)cc(C(F)(F)F)n(C)c2=O)c1N(C(=O)COc1ccccc1)C(=O)COc1ccccc1 [2-120]", 100],
  ["COc1c(Cl)cc(F)c(-n2c(=O)cc(C(F)(F)F)n(C)c2=O)c1NC(=O)OCc1ccc2c(c1)OCO2 [4-41]", 100]
]}

###

Recorded Pre-emerge Herbicidal Activity IPOHE values for a group of compounds are listed next.
- Tested on: ivyleaf morningglory (Ipomoea hederacea, IPOHE)
- ASSAY_OVERVIEW: Pre-emerge test, greenhouse herbicide activity screening
- Format: in vivo
- CONDITION_DETAILS: pre-emerge, rate 63 g ai/ha, phytotoxicity rating 0-100 at 14 days after application
QUANTITY: Pre-emerge Herbicidal Activity IPOHE

{"columns": ["COMPOUND", "EXPERIMENTAL_VALUE"],
 "data": [
  ["Cc1c(Cl)cc(F)c(-n2c(=O)cc(C(F)(F)F)n(C)c2=O)c1NC(=O)OCCc1ccccc1", 50],
  ["Nc1c(O)c(Cl)cc(F)c1N1C(=O)C2CCCCN2C1=S (single isomer, unassigned)", 95],
  ["Cc1cc(C)c(COC(=O)Nc2c(C)c(Cl)cc(F)c2-n2c(=O)cc(C(F)(F)F)n(C)c2=O)c(C)c1", 0],
  ["COc1ccccc1COC(=O)Nc1c(C)c(Cl)cc(F)c1-n1c(=O)cc(C(F)(F)F)n(C)c1=O", 30],
  ["Cc1c(Cl)cc(F)c(-n2c(=O)cc(C(F)(F)F)n(C)c2=O)c1NC(=O)SCc1ccccc1", 60]
]}

###

- Test system: field corn (Zea mays L., var. Dekalb 535, CORN)
- ASSAY_OVERVIEW: Pre-emerge test, crop safety
- Type: in vivo
- CONDITION_DETAILS: pre-emerge, 63 g ai/ha, 14 days after application, rating scale 0-100
QUANTITY: phytotoxicity rating CORN

{"columns": ["COMPOUND", "QUANTITY", "EXPERIMENTAL_VALUE"],
 "data": [
  ["COc1c(Cl)cc(F)c(-n2c(=O)cc(C(F)(F)F)n(C)c2=O)c1NN=C1CCc2ccccc2C1", "phytotoxicity rating CORN", 80],
  ["CCOC(=O)N(C)C(=O)NNc1c(OC)c(Cl)cc(F)c1-n1c(=O)cc(C(F)(F)F)n(C)c1=O", "phytotoxicity rating CORN", 85],
  ["COc1c(Cl)cc(F)c(-n2c(=O)cc(C(F)(F)F)n(C)c2=O)c1SC(C)C", "phytotoxicity rating CORN", 0],
  ["CCCOC(=O)C(Cl)Cc1c(OCC)c(Cl)cc(F)c1-n1c(=O)cc(C(F)(F)F)n(C)c1=O (centres unmarked) [14-65]", "phytotoxicity rating CORN", 0],
  ["CCOC(=O)C(Cl)Cc1cc(Cl)cc(F)c1-n1c(=O)cc(C(F)(F)F)n(C)c1=O (centres unmarked)", "phytotoxicity rating CORN", 0],
  ["COc1c(Cl)cc(F)c(-n2c(=O)cc(C(F)(F)F)n(C)c2=O)c1NN=CC1CC1", "phytotoxicity rating CORN", 100],
  ["COc1c(Cl)cc(F)c(-n2c(=O)cc(C(F)(F)F)n(C)c2=O)c1NN=CCCSC", "phytotoxicity rating CORN", 40],
  ["CCOC(=O)C(Cl)Cc1c(OCC)c(Cl)cc(F)c1-n1c(=O)cc(C(F)(F)F)n(C)c1=O (centres unmarked) [14-63]", "phytotoxicity rating CORN", 0]
]}

###

Recorded Post-emerge Herbicidal Activity IPOHE values for a group of molecules are listed next.
- Test system: ivyleaf morningglory (Ipomoea hederacea, IPOHE)
- ASSAY_OVERVIEW: Post-emerge test, greenhouse herbicide activity screening
- Type: in vivo
- CONDITION_DETAILS: 250 g ai/ha; phytotoxicity rating 0-100 (0 no damage, 100 complete death), 14 days after application

{"columns": ["STRUCTURE_SMILES_STRING", "Post-emerge Herbicidal Activity IPOHE"],
 "data": [
  ["CCOC(=O)CC(=O)Nc1c(OC(=O)CC(=O)OCC)c(Cl)cc(F)c1-n1c(=O)cc(C(F)(F)F)n(C)c1=O", 100],
  ["COc1c(Cl)cc(F)c(-n2c(=O)cc(C(F)(F)F)n(C)c2=O)c1N=CN(C)C", 50],
  ["COc1c(Cl)cc(F)c(-n2c(=O)cc(C(F)(F)F)n(C)c2=O)c1N=C(Cl)C(Cl)(Cl)Cl", 100],
  ["COc1c(Cl)cc(F)c(-n2c(=O)cc(C(F)(F)F)n(C)c2=O)c1NC(=O)c1cccc(C)c1", 100]
]}

###

Recorded Post-emerge Herbicidal Activity, phytotoxicity rating ECHCG values for a group of molecules are listed next.
- Tested on: barnyardgrass (Echinochloa crus-galli, ECHCG)
- ASSAY_OVERVIEW: Post-emerge test, greenhouse herbicide activity screening
- Type: in vivo
- CONDITION_DETAILS: Rate 63 g ai/ha; rating scale 0-100 (0 no damage, 100 complete death); 14 days after application
QUANTITY: Post-emerge Herbicidal Activity, phytotoxicity rating ECHCG

{"columns": ["MOLECULE", "EXPERIMENTAL_VALUE"],
 "data": [
  ["COCCOC(=O)C(Cl)Cc1c(OC)c(Cl)cc(F)c1-n1c(=O)cc(C(F)(F)F)n(C)c1=O (stereo not shown) [14-25]", 100],
  ["CCCCCOC(=O)C(C)(Cl)Cc1c(OC)c(Cl)cc(F)c1-n1c(=O)cc(C(F)(F)F)n(C)c1=O (stereo not shown) [14-37]", 100],
  ["CCCCCOC(=O)C(Cl)Cc1c(OC)c(Cl)cc(F)c1-n1c(=O)cc(C(F)(F)F)n(C)c1=O (single isomer, unassigned) [14-10]", 95],
  ["CCCCOC(=O)C(Cl)Cc1c(OC)c(Cl)cc(F)c1-n1c(=O)cc(C(F)(F)F)n(C)c1=O (single isomer, unassigned) [14-8]", 95],
  ["CCOC(=O)C(Br)Cc1c(OC)c(Cl)cc(F)c1-n1c(=O)cc(C(F)(F)F)n(C)c1=O (single isomer, unassigned) [14-33]", 100],
  ["COc1c(Cl)cc(F)c(-n2c(=O)cc(C(F)(F)F)n(C)c2=O)c1CC(Cl)C(=O)OCC(F)(F)F (stereo not shown) [14-21]", 99],
  ["COc1c(Cl)cc(F)c(-n2c(=O)cc(C(F)(F)F)n(C)c2=O)c1CC(C)(Cl)C(=O)OC(C(F)(F)F)C(F)(F)F (stereo not shown) [14-46]", 100]
]}
